assayedSystem: T1, EsCas13d, nuclease-dead (Eubacterium siraeum, UniProt B0MS50, R295A;H300A;R849A;H854A)
T1 sequence: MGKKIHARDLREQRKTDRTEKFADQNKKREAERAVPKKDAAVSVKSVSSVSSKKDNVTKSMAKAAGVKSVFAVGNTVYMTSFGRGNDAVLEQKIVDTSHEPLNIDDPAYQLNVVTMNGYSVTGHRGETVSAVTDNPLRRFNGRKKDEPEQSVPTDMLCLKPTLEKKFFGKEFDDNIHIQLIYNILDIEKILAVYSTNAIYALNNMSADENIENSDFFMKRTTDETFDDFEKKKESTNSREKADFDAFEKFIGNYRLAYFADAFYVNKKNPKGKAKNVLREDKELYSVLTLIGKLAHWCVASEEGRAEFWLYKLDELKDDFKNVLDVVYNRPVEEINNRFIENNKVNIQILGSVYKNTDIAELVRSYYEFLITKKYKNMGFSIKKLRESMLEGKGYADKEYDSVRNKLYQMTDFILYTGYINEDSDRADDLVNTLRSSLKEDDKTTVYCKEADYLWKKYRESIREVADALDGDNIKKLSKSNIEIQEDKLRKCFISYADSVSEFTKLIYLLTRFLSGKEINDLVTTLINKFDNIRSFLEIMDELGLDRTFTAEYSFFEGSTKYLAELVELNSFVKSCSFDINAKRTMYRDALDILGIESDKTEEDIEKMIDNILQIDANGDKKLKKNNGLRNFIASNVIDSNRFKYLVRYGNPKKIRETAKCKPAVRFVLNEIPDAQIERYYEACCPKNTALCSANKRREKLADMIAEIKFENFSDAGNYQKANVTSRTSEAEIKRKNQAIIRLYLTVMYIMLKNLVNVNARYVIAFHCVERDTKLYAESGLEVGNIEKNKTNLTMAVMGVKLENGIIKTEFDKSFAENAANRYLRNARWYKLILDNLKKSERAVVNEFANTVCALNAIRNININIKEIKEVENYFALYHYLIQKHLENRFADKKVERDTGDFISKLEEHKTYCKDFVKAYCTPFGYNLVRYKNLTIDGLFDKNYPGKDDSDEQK
experimentalDetails: crRNA (strand 1, pre-loaded); Mg2+; 40 mM Tris-HCl pH 7.5, 150 mM NaCl, 6 mM MgCl2, 1 mM DTT, 0.1% Tween-20, 0.2 mg/ml BSA; 25 C; 10 min per concentration, then washed
testParameters: tags: His6-TwinStrep-SUMO cleaved; N-terminal SNAP kept (SNAP-Surface 488); label: 3' end held by stalled T7 RNA polymerase
List of Kd values.
Report as a plain number; the unit nM is understood.

target 3 A5G,U8C (mixed) RNA 1: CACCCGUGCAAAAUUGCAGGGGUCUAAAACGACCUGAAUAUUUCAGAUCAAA RNA 2: GGGAAUGGAUCCACAUCUACGAAUUCGUUUUUGAUCUGAAAUACUCGGGUCUGCAGAUCGGAAGAGCACACGU : 86.5

Now turn to the next binder.
Challenge: State the recorded Kd for this entry: target 1 insC 3' of 10,insU 3' of 1 (mixed) RNA 1: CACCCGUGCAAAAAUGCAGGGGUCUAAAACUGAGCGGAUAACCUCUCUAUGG RNA 2: GGGAAUGGAUCCACAUCUACGAAUUCGUACCAUAGAGAGGUUCAUCCGCUCAUCCGAGAUCGGAAGAGCACACGU
Response given: 26

Origin of measurements: paper PMC10786891
